Data origin, for the record: the NIST ThermoML archive (doi:10.1021/je050389b)

Test: xn = mol fraction of the nth substance listed
Details: 308.15 K; 101 kPa; Liquid; x1 = 0.9
value type: mass density (kg/m3)
State the answer as a number, implicitly in kg/m3.

Known mass density results, listed for orientation:
Asked: What mass density value was documented for this molecule, CCOC(=O)Cc1ccccc1 [ethyl phenylacetate] + CCO ?
Given back: 1008.14

Asked: Please report the recorded mass density for CCCCCC(=O)OCC [ethyl hexanoate] + CCO .
Given back: 853.45

Asked: Which mass density is listed for CCOC(=O)c1ccccc1 [ethyl benzoate] + CCO ?
Given back: 1021.06

Asked: What does the data say about its mass density? Entry: CCCCCCCC(=O)OCC [ethyl octanoate] + CCO
Given back: 850.78

Further cases:
Asked: What mass density value was documented for this molecule, CCCC(=O)OCCC(C)C [3-methylbutyl butanoate] + CCO ?
Given back: 846.71

====

Details: 288.15 K; 101 kPa; Liquid
We label by threshold. Values of mass density strictly beneath 1000 kg/m3 are Met. Values of 1000 kg/m3 and up are Not met.

Asked: Strictly below 1000 kg/m3 in mass density? CCCCCCCC(=O)OCC [ethyl octanoate]
Given back: Met

Asked: hey, is mass density for CCO lower than 1000 kg/m3 or not?
Given back: Met

Asked: Confirm or reject: mass density of CCCC(=O)OCCC(C)C [3-methylbutyl butanoate] lies strictly below 1000 kg/m3
Given back: Met

Asked: Check if mass density falls below 1000 kg/m3 for CCOC(=O)c1ccccc1 [ethyl benzoate] .
Given back: Not met

Asked: Does this molecule meet the criterion mass density < 1000 kg/m3? CCCCCC(=O)OCC [ethyl hexanoate]
Given back: Met

Asked: Is mass density of CCOC(=O)Cc1ccccc1 [ethyl phenylacetate] strictly below 1000 kg/m3?
Given back: Not met

====

mass density values for the compounds below.
Experiment: xn = mol fraction of the nth substance listed
Conditions: 308.15 K; 101 kPa; Liquid; x1 = 0.45
Quick note: give the figure in kg/m3, leave out the unit.

Study these solved cases before continuing.
Asked: Fill blank: measured mass density of the compound CCCCCC(=O)OCC [ethyl hexanoate] + CCO is ____.
Given back: 831.37

Asked: Query: mass density; subject: CCOC(=O)Cc1ccccc1 [ethyl phenylacetate] + CCO
Given back: 944.13

Next:
Asked: Could you tell me which mass density is on file for CCCC(=O)OCCC(C)C [3-methylbutyl butanoate] + CCO ?
Given back: 827.79

Asked: mass density lookup needed for CCCCCCCC(=O)OCC [ethyl octanoate] + CCO , thanks.
Given back: 831.86

Asked: Fill in: mass density of CCOC(=O)c1ccccc1 [ethyl benzoate] + CCO is ___
Given back: 948.81

====

# key: entry, value: mass density
Assay: xn = mol fraction of the nth substance listed
Conditions: 288.15 K; 101 kPa; Liquid; x1 = 0.05
Numbers after ± are expanded uncertainties.

Here's what some known entries look like.
Asked: Would you mind telling me what mass density value was observed for CCOC(=O)Cc1ccccc1 [ethyl phenylacetate] + CCO ?
Given back: 825.34 ± 0.22 kg/m3

Asked: May I ask what mass density has been recorded for CCOC(=O)c1ccccc1 [ethyl benzoate] + CCO ?
Given back: 824.59 ± 0.21 kg/m3

Asked: Recorded mass density of CCCC(=O)OCCC(C)C [3-methylbutyl butanoate] + CCO , please.
Given back: 804.06 ± 0.23 kg/m3

Asked: # lookup: mass density of CCCCCCCC(=O)OCC [ethyl octanoate] + CCO
Given back: 805.14 ± 0.23 kg/m3

Shift focus to the following entry.
Asked: Report mass density for CCCCCC(=O)OCC [ethyl hexanoate] + CCO please.
Given back: 804.18 ± 0.23 kg/m3
